Target: Dihydropteridine reductase (Homo sapiens, UniProt P09417)
Sequence (P09417 whole entry): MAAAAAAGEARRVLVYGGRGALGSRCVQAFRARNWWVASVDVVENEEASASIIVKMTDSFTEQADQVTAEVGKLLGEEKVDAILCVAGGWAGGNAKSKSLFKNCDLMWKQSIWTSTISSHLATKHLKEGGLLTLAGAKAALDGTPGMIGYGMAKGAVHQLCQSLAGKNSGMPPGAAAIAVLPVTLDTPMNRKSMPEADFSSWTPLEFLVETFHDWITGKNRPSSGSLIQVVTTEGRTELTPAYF
Experiment: Inhibitory activity against human liver Dihydropteridine reductase (DHPR)
Settings: read-out: I50
assay-endpoint: IC50 (µM)
Respond numerically; units are µM and should not be typed.

Input `CC(=O)N1CC=C(c2ccc(O)c(O)c2)CC1` . Output IC50: 0.28

get_value(item= `CN1CCC(c2ccccc2)CC1` , readout=IC50) returns 23000

Lab note: `CN1CC=C(c2ccc(O)c(O)c2)CC1` gave IC50 of 3.4

----------
Biological target: Dihydropteridine reductase (Rattus norvegicus)
Sequence (P11348 whole entry): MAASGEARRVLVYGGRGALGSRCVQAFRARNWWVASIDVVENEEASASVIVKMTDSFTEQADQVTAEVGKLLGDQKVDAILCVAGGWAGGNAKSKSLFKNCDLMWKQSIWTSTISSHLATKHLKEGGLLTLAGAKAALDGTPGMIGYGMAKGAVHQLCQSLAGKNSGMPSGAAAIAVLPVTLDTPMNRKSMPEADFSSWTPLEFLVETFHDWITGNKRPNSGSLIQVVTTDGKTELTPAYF
Assay: Inhibitory activity against rat striatal synaptosomes Dihydropteridine reductase (DHPR)
Type: subcellular, Brain
Conditions: read-out: I50
pIC50: −log10 of the molar value.
Values of pIC50 greater than or equal to 3 map to Criterion met; values below map to Criterion not met.

The examples below pair each entry with its known result.
Textbook exercise: given the entry `CN1CCC(c2ccccc2)CC1` , state whether its pIC50 is greater than or equal to 3.
Criterion not met

Textbook exercise: given the entry `Oc1ccc(-c2ccncc2)cc1O` , state whether its pIC50 is greater than or equal to 3.
Criterion met

Is pIC50 for `COc1cc(C2=CCN(C(C)=O)CC2)ccc1O` at or above 3?
Criterion met

New cases:
Given the entry `COc1ccc(C2=CCN(C(C)=O)CC2)cc1OC` , answer whether its pIC50 meets or surpasses 3.
Criterion not met

State whether the measured pIC50 reaches 3, counting equality as reaching it, for `CC(=O)N1CCC(c2ccc(O)c(O)c2)CC1`
Criterion met

Given `COc1cc(C2CCN(C)CC2)ccc1O` , state whether its pIC50 is at least 3.
Criterion met

Form field: pIC50 at least 3? Entry: `c1ccc(-c2ccncc2)cc1`
Criterion not met

Hi team, for `COc1ccc(-c2ccncc2)cc1OC` , is the recorded pIC50 at or above 3?
Criterion not met

Does the reported pIC50 for `C1=C(c2ccccc2)CCNC1` fall at or above the 3 mark?
Criterion not met

Quick check: does `CN1CCC(c2ccc(O)c(O)c2)CC1` have pIC50 greater than or equal to 3?
Criterion met

Can `CN1CC=C(c2ccc(O)cc2)CC1` be said to have pIC50 at or above 3?
Criterion met

Determine whether measured pIC50 meets or exceeds 3 for `C[n+]1ccc(-c2ccc(O)c(O)c2)cc1`
Criterion met

Does the compound `CN1CC=C(c2ccc(Cl)cc2)CC1` have recorded pIC50 that is 3 or more?
Criterion not met

----------
Target: Dihydropteridine reductase (Homo sapiens, UniProt P09417)
Experiment: Inhibitory activity against human liver Dihydropteridine reductase enzyme using 10 uM qBH2 and 50 uM NADH assays
Settings: read-out: I50
assay-endpoint: IC50 (mM)
Field: numeric (mM). Do not append units.

// sample `CN1CC=C(c2ccccc2)CC1` , its IC50 was 7.2

----------
Target: Dihydropteridine reductase (Homo sapiens)
Test: Inhibitory activity against human liver Dihydropteridine reductase (DHPR)
Conditions: read-out: I50
assay-endpoint: IC50 (µM)
# number only, unit µM dropped from output

Per the reported Dihydropteridine reductase (Homo sapiens) data, `COc1ccc(C2=CCN(C(C)=O)CC2)cc1OC` has IC50 of 1100

# IC50 measured on Dihydropteridine reductase (Homo sapiens) for item `Oc1ccc(C2=CCNCC2)cc1` = 5.9

Field IC50 (system: Dihydropteridine reductase (Homo sapiens)) for entry `COc1ccc(-c2ccncc2)cc1OC` = 5300

Assay Dihydropteridine reductase (Homo sapiens), sample `CN1CC=C(c2ccc(O)cc2)CC1` , IC50 read: 3

Response field IC50 (Dihydropteridine reductase (Homo sapiens)) for item `c1ccc(-c2ccncc2)cc1` : 2400

Form field IC50 for item `CC(=O)N1CCC(c2ccc(O)c(O)c2)CC1` on Dihydropteridine reductase (Homo sapiens): 5.2

---
Test item `CN1CCC(c2ccc(O)c(O)c2)CC1` ; Dihydropteridine reductase (Homo sapiens); reported IC50 was 42

Field IC50 (Dihydropteridine reductase (Homo sapiens)), entry `C=CC[n+]1ccc(-c2ccccc2)cc1` : 9400

Result for `COc1cc(C2=CCNCC2)ccc1O` , tested on Dihydropteridine reductase (Homo sapiens), IC50: 7.2

Summary: `Clc1ccc(C2=CCNCC2)cc1` , Dihydropteridine reductase (Homo sapiens), IC50 = 3400

Tested system Dihydropteridine reductase (Homo sapiens); IC50 recorded for `CN1CC=C(c2ccccc2)CC1` was 3000

# `CN1CC=C(c2ccc(Cl)cc2)CC1` with Dihydropteridine reductase (Homo sapiens): IC50 is 2700

Kindly note: Dihydropteridine reductase (Homo sapiens), `C[n+]1ccc(-c2ccc(O)c(O)c2)cc1` , IC50 value reported: 0.63

For `COc1cc(C2=CCN(C)CC2)ccc1O` on Dihydropteridine reductase (Homo sapiens), measured IC50 was 9.3

Value sought: IC50, system Dihydropteridine reductase (Homo sapiens), item `C[n+]1ccc(-c2ccccc2)cc1` . Result: 5600

----------
Target: UniProt:P09417
Assay: Inhibitory activity against human liver Dihydropteridine reductase (DHPR)
Settings: read-out: I50
assay-endpoint: pIC50
pIC50 is defined as minus the log10 of a concentration measured in mol/L.

Record `C[n+]1ccc(-c2ccccc2)cc1` , field pIC50: 2.00

Summary for this compound, `COc1cc(C2=CCN(C(C)=O)CC2)ccc1O` : pIC50 is 5.30

Per the record, `Oc1ccc(-c2ccncc2)cc1O` has pIC50 of 6.42

pIC50 reported for this compound `COc1cc(C2CCN(C(C)=O)CC2)ccc1O` : 4.57

What the record says about `Oc1ccc(C2=CCNCC2)cc1O` : pIC50 is 5.44

Reported pIC50 of `COc1cc(C2CCN(C)CC2)ccc1O` : 4.72

Please fill in: pIC50 reported for `C1=C(c2ccccc2)CCNC1` = 1.92

Lab note: measured pIC50 of `Oc1ccc(C2CCNCC2)cc1O` was 4.36
